biological target: ATM (Homo sapiens); construct: detecting phosphorylation of Chk2 in a human non-small cell lung cancer cell line NCI-H460 (ATCC company); host or cells: NCI-H460 human non-small cell lung cancer cells; test: ATM inhibition test (phosphorylation of Chk2 generated by ionizing radiation, AlphaScreen SureFire); format: cell-based; details: phosphorylated Chk2 in NCI-H460 cells, ionizing radiation 8Gy, 1 hour after test compound treatment; read-out: ATM inhibitory activity
Sequence (Q13315 whole entry): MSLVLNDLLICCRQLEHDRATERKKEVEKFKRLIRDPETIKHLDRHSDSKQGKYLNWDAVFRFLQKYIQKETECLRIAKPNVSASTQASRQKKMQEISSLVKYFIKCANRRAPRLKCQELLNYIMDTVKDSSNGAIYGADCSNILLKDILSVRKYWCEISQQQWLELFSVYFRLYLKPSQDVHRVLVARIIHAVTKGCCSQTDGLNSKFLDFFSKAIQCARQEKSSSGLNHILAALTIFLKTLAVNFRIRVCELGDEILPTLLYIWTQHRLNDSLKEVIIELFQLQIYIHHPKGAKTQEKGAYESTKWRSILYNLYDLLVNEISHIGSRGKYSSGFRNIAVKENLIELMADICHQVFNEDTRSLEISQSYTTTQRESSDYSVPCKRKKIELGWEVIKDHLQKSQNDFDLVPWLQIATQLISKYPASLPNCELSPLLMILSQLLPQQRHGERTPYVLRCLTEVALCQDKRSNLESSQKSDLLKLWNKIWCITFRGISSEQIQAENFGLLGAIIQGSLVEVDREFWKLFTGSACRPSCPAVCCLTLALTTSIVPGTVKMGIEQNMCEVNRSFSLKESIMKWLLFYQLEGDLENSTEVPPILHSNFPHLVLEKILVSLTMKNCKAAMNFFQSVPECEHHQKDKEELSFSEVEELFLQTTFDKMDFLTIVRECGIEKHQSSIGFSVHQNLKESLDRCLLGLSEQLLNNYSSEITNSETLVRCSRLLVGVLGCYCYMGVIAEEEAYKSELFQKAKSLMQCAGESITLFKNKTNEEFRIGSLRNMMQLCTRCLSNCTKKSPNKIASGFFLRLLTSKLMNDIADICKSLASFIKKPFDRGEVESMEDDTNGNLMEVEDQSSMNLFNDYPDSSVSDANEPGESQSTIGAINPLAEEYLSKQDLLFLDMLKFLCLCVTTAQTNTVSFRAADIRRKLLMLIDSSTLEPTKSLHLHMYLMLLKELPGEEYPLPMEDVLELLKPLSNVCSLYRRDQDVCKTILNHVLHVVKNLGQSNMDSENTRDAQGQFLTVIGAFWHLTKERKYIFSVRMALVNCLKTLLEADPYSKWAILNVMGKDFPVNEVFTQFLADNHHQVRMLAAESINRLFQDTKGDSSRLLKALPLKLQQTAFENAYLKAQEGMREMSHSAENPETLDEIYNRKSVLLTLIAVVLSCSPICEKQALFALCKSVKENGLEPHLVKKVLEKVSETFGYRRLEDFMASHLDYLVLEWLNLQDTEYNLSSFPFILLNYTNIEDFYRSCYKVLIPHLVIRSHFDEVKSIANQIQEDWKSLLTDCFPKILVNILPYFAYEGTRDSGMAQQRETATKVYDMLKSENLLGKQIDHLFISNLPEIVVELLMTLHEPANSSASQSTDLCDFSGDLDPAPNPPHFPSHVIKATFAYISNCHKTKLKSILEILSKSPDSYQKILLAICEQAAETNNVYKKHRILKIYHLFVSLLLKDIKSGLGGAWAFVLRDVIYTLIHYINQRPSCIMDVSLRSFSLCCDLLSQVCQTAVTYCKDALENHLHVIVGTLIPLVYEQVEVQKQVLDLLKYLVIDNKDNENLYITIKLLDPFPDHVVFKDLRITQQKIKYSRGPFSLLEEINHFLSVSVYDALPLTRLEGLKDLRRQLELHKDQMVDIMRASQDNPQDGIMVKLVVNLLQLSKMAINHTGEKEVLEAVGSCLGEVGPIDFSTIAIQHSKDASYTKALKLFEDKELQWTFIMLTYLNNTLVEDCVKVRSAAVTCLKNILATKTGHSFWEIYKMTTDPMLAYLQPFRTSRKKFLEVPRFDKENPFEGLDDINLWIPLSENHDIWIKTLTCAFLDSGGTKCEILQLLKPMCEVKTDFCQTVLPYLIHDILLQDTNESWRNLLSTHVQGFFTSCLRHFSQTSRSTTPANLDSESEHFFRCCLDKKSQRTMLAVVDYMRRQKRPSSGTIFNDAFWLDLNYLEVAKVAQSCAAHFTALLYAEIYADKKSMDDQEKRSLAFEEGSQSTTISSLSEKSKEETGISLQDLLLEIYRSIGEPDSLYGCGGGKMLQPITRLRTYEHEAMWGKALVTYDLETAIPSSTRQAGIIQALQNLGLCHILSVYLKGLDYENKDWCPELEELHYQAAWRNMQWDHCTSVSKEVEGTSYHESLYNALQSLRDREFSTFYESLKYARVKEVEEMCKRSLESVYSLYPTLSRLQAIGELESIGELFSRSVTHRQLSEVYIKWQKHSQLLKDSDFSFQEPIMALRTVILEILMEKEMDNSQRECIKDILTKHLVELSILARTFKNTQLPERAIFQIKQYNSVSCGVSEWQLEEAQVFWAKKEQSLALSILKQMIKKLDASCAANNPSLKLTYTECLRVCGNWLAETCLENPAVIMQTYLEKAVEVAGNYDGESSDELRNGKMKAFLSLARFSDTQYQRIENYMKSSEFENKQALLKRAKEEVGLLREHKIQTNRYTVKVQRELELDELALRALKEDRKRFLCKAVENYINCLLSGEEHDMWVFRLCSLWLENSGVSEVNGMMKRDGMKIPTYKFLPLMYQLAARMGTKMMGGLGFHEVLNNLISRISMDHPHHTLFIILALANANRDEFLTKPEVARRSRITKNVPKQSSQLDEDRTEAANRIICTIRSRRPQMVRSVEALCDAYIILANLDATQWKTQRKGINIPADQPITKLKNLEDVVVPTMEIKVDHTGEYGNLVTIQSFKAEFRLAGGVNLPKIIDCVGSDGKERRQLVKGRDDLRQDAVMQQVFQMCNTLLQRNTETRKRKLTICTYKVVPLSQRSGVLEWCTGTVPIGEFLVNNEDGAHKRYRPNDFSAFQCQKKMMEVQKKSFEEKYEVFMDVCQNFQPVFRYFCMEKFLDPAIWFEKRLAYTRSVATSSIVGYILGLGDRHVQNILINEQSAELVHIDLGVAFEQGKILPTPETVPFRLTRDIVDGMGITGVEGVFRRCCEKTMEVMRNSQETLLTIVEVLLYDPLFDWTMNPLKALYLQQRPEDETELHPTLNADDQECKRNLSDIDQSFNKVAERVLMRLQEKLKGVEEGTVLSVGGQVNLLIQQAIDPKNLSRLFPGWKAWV
pIC50: −log10 of the molar value.
READOUT LABEL: pIC50

Example results:
[[record]]
compound = "O=c1cc(N2CCOCC2)cc(-c2cccc3c2Oc2ccc(NCc4cccnc4)cc2C3)[nH]1 [Example 2-3-1]"
tested_system = "ATM (Homo sapiens)"
result = "6.30 to 7.00"

[[record]]
compound = "CNc1ncc(CNc2ccc3c(c2)Sc2cccc(-c4cc(N5CCOCC5)cc(=O)[nH]4)c2O3)cn1 [Example 4-4-13]"
tested_system = "ATM (Homo sapiens)"
result = "> 7.00"

[[record]]
compound = "CC(CN1CCN(C)CC1)Nc1ccc2c(c1)Sc1cccc(-c3cc(N4CCOCC4)cc(=O)[nH]3)c1S2 (single isomer, unassigned) [Example 1-13-3-3]"
tested_system = "ATM (Homo sapiens)"
result = "6.30 to 7.00"

[[record]]
compound = "CC(Nc1ccc2c(c1)Sc1cccc(-c3cc(N4CCOCC4)cc(=O)[nH]3)c1S2)C(=O)N1CCCC1 (centres unmarked) [Example 1-18-4]"
tested_system = "ATM (Homo sapiens)"
result = "6.30 to 7.00"

[[record]]
compound = "Cc1ccc(C2(Nc3ccc4c(c3)Sc3cccc(-c5cc(N6CCOCC6)cc(=O)[nH]5)c3S4)CC2)nc1 [Example 1-50-5]"
tested_system = "ATM (Homo sapiens)"
result = "> 7.00"

[[record]]
compound = "CC(=O)Nc1ccc(CCN2CCC(Nc3ccc4c(c3)Cc3cccc(-c5cc(N6CCOCC6)cc(=O)[nH]5)c3O4)CC2)cc1 [Example 2-32]"
tested_system = "ATM (Homo sapiens)"
result = "6.30 to 7.00"


Q. Please tell me: pIC50 of Cc1ccnc(C(CO)Nc2ccc3c(c2)Sc2cccc(-c4cc(N5CCOCC5)cc(=O)[nH]4)c2S3)c1 (centres unmarked) [Example 1-12-65] , system ATM (Homo sapiens)?
A. > 7.00

Q. Also COc1cc(OC)nc(CN2CCC(Nc3ccc4c(c3)Cc3cccc(-c5cc(N6CCOCC6)cc(=O)[nH]5)c3O4)CC2)n1 [Example 2-28-20] , if possible.
A. 6.30 to 7.00

Q. Also Cc1ccc(C(C[C@@H]2CCCN2C)Nc2ccc3c(c2)Sc2cccc(-c4cc(N5CCOCC5)cc(=O)[nH]4)c2S3)nc1 (single isomer, unassigned) [Example 12-2] , if possible.
A. 6.30 to 7.00

Q. Also CN1CC(Nc2ccc3c(c2)Sc2cccc(-c4cc(N5CCOCC5)cc(=O)[nH]4)c2S3)C(N2CCOCC2)C1 (racemic) [Example 11-2] , if possible.
A. 6.30 to 7.00

Q. Also Cc1ccnc(C(C)Nc2ccc3c(c2)Sc2cccc(-c4cc(N5CCOCC5)cc(=O)[nH]4)c2S3)n1 (single isomer, unassigned) [Example 1-12-144-1] , if possible.
A. > 7.00

All values here come from patent US9586951B2.
